// provenance: paper PMC7731434

- measurement_notes: Tissue distribution study in minipigs after intravenous administration
- Type: in vivo, Yucatan minipigs
- test_context: Yucatan; kidney, 2 h after intravenous administration of 12.5 mg/kg, minipig; read-out: Tissue Concentration Kidney
I'd appreciate it if you could supply concentration at 2 h values for the items below.
# value in ng/g; strip the unit string

Using known records, supply concentration at 2 h for CC(=O)NC1C(O)CC(OCC2OC(OC3C(CO)OC(O)C(O)C3O)C(O)C(O)C2O)(C(=O)O)OC1C(O)C(O)CO (centres unmarked)
27000

Using known records, supply concentration at 2 h for CC(=O)N[C@H]1[C@H]([C@H](O)[C@H](O)CO)O[C@@](O[C@H]2[C@@H](O)[C@@H](CO)O[C@@H](O[C@H]3[C@H](O)[C@@H](O)[C@H](O)O[C@@H]3CO)[C@@H]2O)(C(=O)O)C[C@@H]1O
22300

---

I'd appreciate it if you could supply concentration at 2 h values for the items below.
- measurement_notes: Tissue distribution study in minipigs after intravenous administration
- Type: in vivo, Yucatan minipigs
- test_context: Yucatan; liver, 2 h after intravenous administration of 12.5 mg/kg, minipig; read-out: Tissue Concentration Liver
- Procedure: A tissue distribution study was conducted involving intravenous injection of minipigs with 3′-SL and 6′-SL at a dose of 12.5 mg/kg. Kidney, liver, and blood samples were collected. The tissue to plasma (T/P) ratio was also calculated from the concentrations of 3′-SL and 6′-SL in the kidney, liver, and plasma, from the same minipigs at the same time points. The tissue distribution of 3′-SL and 6′-SL in Yucatan minipigs was assessed following intravenous administration at a dose of 12.5 mg/kg. […]
# value in ng/g; strip the unit string

Using known records, supply concentration at 2 h for CC(=O)N[C@H]1[C@H]([C@H](O)[C@H](O)CO)O[C@@](O[C@H]2[C@@H](O)[C@@H](CO)O[C@@H](O[C@H]3[C@H](O)[C@@H](O)[C@H](O)O[C@@H]3CO)[C@@H]2O)(C(=O)O)C[C@@H]1O
2550

Using known records, supply concentration at 2 h for CC(=O)NC1C(O)CC(OCC2OC(OC3C(CO)OC(O)C(O)C3O)C(O)C(O)C2O)(C(=O)O)OC1C(O)C(O)CO (centres unmarked)
3030

---

- measurement_notes: Tissue distribution study in minipigs after intravenous administration
- Format: in vivo, Yucatan minipigs
- test_context: Yucatan; plasma, 2 h after intravenous administration of 12.5 mg/kg, minipig; read-out: Tissue Concentration Plasma
I'd appreciate it if you could supply concentration at 2 h values for the items below.

Using known records, supply concentration at 2 h for CC(=O)NC1C(O)CC(OCC2OC(OC3C(CO)OC(O)C(O)C3O)C(O)C(O)C2O)(C(=O)O)OC1C(O)C(O)CO (centres unmarked)
21000 ng/g

Using known records, supply concentration at 2 h for CC(=O)N[C@H]1[C@H]([C@H](O)[C@H](O)CO)O[C@@](O[C@H]2[C@@H](O)[C@@H](CO)O[C@@H](O[C@H]3[C@H](O)[C@@H](O)[C@H](O)O[C@@H]3CO)[C@@H]2O)(C(=O)O)C[C@@H]1O
21500 ng/g
